Biological target: SARS-CoV-2 Spike as carried on rVSV-SARS-CoV-2 pseudovirus and authentic WT virus (SARS-CoV-2, UniProt P0DTC2 14-1273)
Experiment: cell-based or functional assay
This listing pairs binders with measured Neutralization (ng/mL), Pseudovirus IC90.
Reported Property: Neutralization (ng/mL), Pseudovirus IC90

Binder	Reported Property	Readout Value
AB-8 full-length IgG1 (antibody, V domains shown) VH: EVQLEESGTVLARPGASVKMSCKASGYTFTTYWMHWIKQRPGQGLEWIGAIYPGNSDTIYNQKFKDKAKLTAVKSTSSAYMELSSLTNEDSAVYFCTREGIPQLLRTLDYWGQGTSVTVSS VL: DILMTQSPSSLSASLGERVSLTCRASQEISGYLSWLQEKPDGTIKRLIYAASTLDSGVPKRFSGSRSGSDYSLTISSLESEDFADYYCLQYLSYPWTFGGGTKLEIK	Neutralization (ng/mL), Pseudovirus IC90	7.6
AB-3 full-length IgG1 (antibody, V domains shown) VH: EVQLEESGTVLARPGASVKMSCKASGYTFTTYWMHWIKQRPGQGLEWIGAIYPGNGDTNYNQKFKDKAKLTAVKSTSSAYMELSSLTNEDSAVYFCTREGIPQKLRTLDVWGQGTSVTVSS VL: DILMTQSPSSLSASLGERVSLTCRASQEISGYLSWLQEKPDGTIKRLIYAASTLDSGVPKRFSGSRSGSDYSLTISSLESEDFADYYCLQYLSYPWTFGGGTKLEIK	Neutralization (ng/mL), Pseudovirus IC90	502

All figures here come from patent US12473560.
